Give MBC for every item shown.
system: S. aureus ATCC 6538; test: MBC by Miles-Misra drop-plate method, S. aureus; format: cell-based; conditions: Staphylococcus aureus, ATCC6538, Zinc (50 μM); read-out: S. aureus ATCC 6538 MBC
// return numeric value only (unit: µg/mL, not printed)

Name the recorded MBC of the compound listed here: `O=S(=O)(Nc1cccc2ccc(CNCCN3CCOCC3)nc12)c1ccc(C(F)(F)F)cc1` 256

Name the recorded MBC of the compound listed here: `O=S(=O)(Nc1cccc2ccc(CNC(CO)(CO)CO)nc12)c1ccc(C(F)(F)F)cc1` 32

Name the recorded MBC of the compound listed here: `O=S(=O)(Nc1cccc2ccc(/C=N/NC(=S)NCCN3CCOCC3)nc12)c1ccc(C(F)(F)F)cc1` 32

----------
tested on: S. aureus ATCC 6538; test: MIC by broth microdilution, S. aureus; type: cell-based; details: Staphylococcus aureus, ATCC6538, No Zinc; read-out: S. aureus ATCC 6538 MIC
property.name: MIC (µg/mL)
// return numeric value only (unit: µg/mL, not printed)

Name the recorded MIC of the molecule listed here: `CC(C)NCc1ccc2cccc(NS(=O)(=O)c3ccc(C(F)(F)F)cc3)c2n1` 16

Name the recorded MIC of the molecule listed here: `COCCNCc1ccc2cccc(NS(=O)(=O)c3ccc(C(F)(F)F)cc3)c2n1` 64

Name the recorded MIC of the molecule listed here: `O=S(=O)(Nc1cccc2ccc(CNCC3CCCCC3)nc12)c1ccc(C(F)(F)F)cc1` 32

Name the recorded MIC of the molecule listed here: `CC(C)(C)NCc1ccc2cccc(NS(=O)(=O)c3ccc(C(F)(F)F)cc3)c2n1` 32

Name the recorded MIC of the molecule listed here: `O=S(=O)(Nc1cccc2ccc(CNc3cc(Cl)cc(Cl)c3O)nc12)c1ccc(C(F)(F)F)cc1` 2

Name the recorded MIC of the molecule listed here: `O=S(=O)(Nc1cccc2ccc(CNCCCN3CCOCC3)nc12)c1ccc(C(F)(F)F)cc1` 64

----------
tested on: S. aureus ATCC 6538; assay: MIC by broth microdilution, S. aureus; type: cell-based; details: Staphylococcus aureus, ATCC6538, No Zinc; read-out: S. aureus ATCC 6538 MIC
Give MIC for every item shown.
// return numeric value only (unit: µg/mL, not printed)

Name the recorded MIC of the compound listed here: `N/N=C/c1ccc2cccc(NS(=O)(=O)c3ccc(C(F)(F)F)cc3)c2n1` 16

Name the recorded MIC of the compound listed here: `CC(C)(C)OC(=O)N=C(NCCNCc1ccc2cccc(NS(=O)(=O)c3ccc(C(F)(F)F)cc3)c2n1)NC(=O)OC(C)(C)C` 256

Name the recorded MIC of the compound listed here: `CN1CCN(Cc2ccc3cccc(NS(=O)(=O)c4ccc(C(F)(F)F)cc4)c3n2)CC1` 256

Name the recorded MIC of the compound listed here: `O=S(=O)(Nc1cccc2ccc(CNCCCO)nc12)c1ccc(C(F)(F)F)cc1` 64

Name the recorded MIC of the compound listed here: `C#CCNCc1ccc2cccc(NS(=O)(=O)c3ccc(C(F)(F)F)cc3)c2n1` 64

Name the recorded MIC of the compound listed here: `COc1cccc(S(=O)(=O)Nc2cccc3ccc(CN(C)C)nc23)c1` 256

Name the recorded MIC of the compound listed here: `O=[N+]([O-])c1ccc(O)c(NCc2ccc3cccc(NS(=O)(=O)c4ccc(C(F)(F)F)cc4)c3n2)c1` 8
